TESTED_SYSTEM: human mAChR M4 (Homo sapiens, UniProt P08173)
Construct: expressed in transfected cells; host or cells: CHO-K1 (ATCC), stably co-expressing chimeric G protein Gqi5
Sequence (P08173 1-479): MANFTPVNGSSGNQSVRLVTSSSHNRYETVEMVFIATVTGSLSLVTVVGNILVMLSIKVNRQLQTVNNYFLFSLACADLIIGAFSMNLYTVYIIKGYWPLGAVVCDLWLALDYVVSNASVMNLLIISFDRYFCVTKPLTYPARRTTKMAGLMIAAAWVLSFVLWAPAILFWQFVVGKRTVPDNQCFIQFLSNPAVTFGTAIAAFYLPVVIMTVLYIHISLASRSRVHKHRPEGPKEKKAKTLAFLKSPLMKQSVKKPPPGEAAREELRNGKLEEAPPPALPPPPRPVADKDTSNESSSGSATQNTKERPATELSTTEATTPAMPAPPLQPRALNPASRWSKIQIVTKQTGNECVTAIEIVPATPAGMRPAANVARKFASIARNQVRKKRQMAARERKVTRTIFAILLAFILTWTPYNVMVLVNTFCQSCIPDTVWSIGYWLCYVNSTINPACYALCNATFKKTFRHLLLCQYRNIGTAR
RUN_DESCRIPTION: mAChR M4 cell-based functional assay (calcium mobilization, EC80 acetylcholine), human M4
CONDITIONS: Table 10; M4/Gqi5/CHO-K1 cells, decrease of EC80 acetylcholine response
Overview of recorded pIC50 for various compounds
Please express pIC50 as -log10 of the molar concentration.

Find the recorded pIC50 belonging to c1cc(N2CCCCC2)nnc1N[C@H]1C[C@@H]2CN(CC3CCOCC3)C[C@@H]2C1 [Compound 193] and report it.
9.10

Report pIC50 for CC(=O)Nc1ccc(-c2ccc(O[C@H]3C[C@@H]4CN(CC5CCCCC5)C[C@@H]4C3)nn2)cc1 [Compound 130] please.
7.23

Need pIC50, item c1cnc2ccc(-c3ccc(N[C@H]4C[C@@H]5CN(CC6CCOCC6)C[C@@H]5C4)nn3)cc2c1 [Compound 181]
8.85

Can you look up the measured pIC50 of CC(=O)Nc1ccc(-c2ccc(N[C@H]3C[C@@H]4CN(CCC(C)(C)C)C[C@@H]4C3)nn2)cc1 [Compound 140] for me?
8.97

* * *

TESTED_SYSTEM: human mAChR M4 (Homo sapiens)
Construct: expressed in transfected cells; host or cells: CHO-K1 (ATCC), stably co-expressing chimeric G protein Gqi5
RUN_DESCRIPTION: mAChR M4 cell-based functional assay (calcium mobilization, EC80 acetylcholine), human M4
CONDITIONS: Table 10
Method: Human or rat M4 cDNA, along with the chimeric G protein Gqi5, were transfected into Chinese hamster ovary (CHO-K1) cells purchased from the American Type Culture Collection using Lipofectamine2000. […] Calcium flux was measured using the Functional Drug Screening System (FDSS) 6000 or 7000 (Hamamatsu Corporation, Tokyo, Japan) as an increase in the fluorescent static ratio. […] Agonist activity was analyzed as a concentration-dependent increase in calcium mobilization upon compound addition. […]
ENDPOINT_NAME: Human M4 Emin (%)
Answer with a number only, understood to be in %.

In the examples that follow, each entry is paired with its recorded Human M4 Emin.
Fc1ccc(Cl)c(-c2ccc(N[C@H]3C[C@@H]4CN(Cc5ccoc5)C[C@@H]4C3)nn2)c1	3
Cc1noc(C)c1-c1ccc(O[C@H]2C[C@@H]3CN(CCC(C)(C)C)C[C@@H]3C2)nn1	3
c1cc2c(cc1-c1ccc(N[C@H]3C[C@@H]4CN(CC5CCOCC5)C[C@@H]4C3)nn1)OCO2	4
Fc1ccc(F)c(-c2ccc(N[C@H]3C[C@@H]4CN(CC5CCOCC5)C[C@@H]4C3)nn2)c1	6
c1cc(N2CCOCC2)nnc1N[C@H]1C[C@@H]2CN(CC3CCOCC3)C[C@@H]2C1	5
CC(C)(C)CCN1C[C@H]2C[C@H](Oc3ccc(-c4ccc5c(c4)OCO5)nn3)C[C@H]2C1	3

What measured Human M4 Emin goes with CC(C)CN1C[C@H]2C[C@H](Nc3ccc(-c4cc(F)ccc4Cl)nn3)C[C@H]2C1 ?
3
